test system: Leishmania donovani; experiment: In vitro inhibitory activity against Leishmania donovani (PP75); type: functional, organism-based
endpoint_label: IC50 (µg/mL)
Report the value in µg/mL with no unit label.

Example cases with answers are listed next.
O=C(C(=O)c1ccccc1C(=O)N1CCCCC1)c1ccccc1; 75
Cn1nc(Cc2ccc(Cl)cc2)c2ccccc2c1=O; 64
OC1(Cc2ccccc2)c2ccccc2C2=NCCN21 (configuration not stated); 60
COc1cc(C(=O)C(=O)c2ccccc2C(=O)N2CCCCC2)cc(OC)c1OC; 52
O=C1O/C(=C\c2ccc(Cl)cc2)c2ccccc21; 52

Would you kindly look at the next entry?
[Q] What measured IC50 goes with O=C(C(=O)c1ccccc1C(=O)N1CCCCC1)c1ccc(Cl)cc1 ?
[A] 28
